These measurements were taken from patent US20260242735A1.

Molecular target: human CD33 V25L (human, UniProt P20138 18-364)
Sequence (P20138 18-364 V25L limits assumed): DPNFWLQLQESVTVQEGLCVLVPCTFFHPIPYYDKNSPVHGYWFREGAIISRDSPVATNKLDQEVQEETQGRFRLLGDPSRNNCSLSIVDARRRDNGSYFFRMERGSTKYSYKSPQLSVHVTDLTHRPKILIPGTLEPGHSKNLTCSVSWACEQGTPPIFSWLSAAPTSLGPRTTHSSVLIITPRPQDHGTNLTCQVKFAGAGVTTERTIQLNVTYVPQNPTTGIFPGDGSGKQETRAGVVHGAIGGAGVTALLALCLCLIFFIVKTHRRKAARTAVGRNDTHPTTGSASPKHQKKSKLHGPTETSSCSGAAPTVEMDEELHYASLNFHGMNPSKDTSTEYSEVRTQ
Assay: flow cytometry, mutant on cells, IgG
# reported Mean % WT Binding; entries follow
MEASURED ATTRIBUTE: Mean % WT Binding (% WT binding)

• Refmab #1 (antibody, human IgG1, V domains shown, Tested in IgG format; human IgG1 (Absolute Antibody hP67.6, Cat. No. Ab00283-10.0); also called hP67.6) VH: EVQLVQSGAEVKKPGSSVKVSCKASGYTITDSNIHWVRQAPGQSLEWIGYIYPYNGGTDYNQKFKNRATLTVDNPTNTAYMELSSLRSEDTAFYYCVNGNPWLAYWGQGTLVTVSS VL: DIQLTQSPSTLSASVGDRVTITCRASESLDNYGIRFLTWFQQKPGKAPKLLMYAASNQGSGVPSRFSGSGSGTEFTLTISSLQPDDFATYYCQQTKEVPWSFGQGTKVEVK = 99.2
• Refmab #3 (antibody, human IgG1, V domains shown, Tested in IgG format; human IgG1 Fc silent (PG-LALA)) VH: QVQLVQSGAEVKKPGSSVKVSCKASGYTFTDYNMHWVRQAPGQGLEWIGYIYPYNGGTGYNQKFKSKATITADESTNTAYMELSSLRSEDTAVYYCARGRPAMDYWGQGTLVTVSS VL: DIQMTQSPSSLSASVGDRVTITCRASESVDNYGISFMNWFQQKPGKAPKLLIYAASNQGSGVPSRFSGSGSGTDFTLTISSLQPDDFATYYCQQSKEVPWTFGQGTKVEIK = 97.8
• Refmab #4 (antibody, human IgG1, V domains shown, Tested in IgG format; human IgG1 Fc silent (PG-LALA)) VH: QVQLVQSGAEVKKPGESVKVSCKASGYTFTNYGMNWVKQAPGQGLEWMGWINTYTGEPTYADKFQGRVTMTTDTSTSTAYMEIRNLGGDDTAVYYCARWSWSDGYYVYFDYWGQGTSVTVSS VL: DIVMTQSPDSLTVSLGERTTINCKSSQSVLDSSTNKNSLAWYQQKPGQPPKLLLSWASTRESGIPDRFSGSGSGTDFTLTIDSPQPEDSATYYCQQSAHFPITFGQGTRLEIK = 95
• Refmab #2 (antibody, human IgG1, V domains shown, Tested in IgG format; human IgG1 Fc silent (PG-LALA)) VH: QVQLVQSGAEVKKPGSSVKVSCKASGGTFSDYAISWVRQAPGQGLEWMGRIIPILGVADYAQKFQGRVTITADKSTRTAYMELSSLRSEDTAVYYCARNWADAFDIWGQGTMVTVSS VL: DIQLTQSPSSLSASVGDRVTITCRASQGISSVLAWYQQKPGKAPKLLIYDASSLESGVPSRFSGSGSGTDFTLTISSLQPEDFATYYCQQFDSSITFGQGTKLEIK = 109
